Please respond with reported IC50 for every item in the list.
- measured-target: EP4 (Homo sapiens)
- Construct: BT549 breast cancer cells, express high endogenous EP4 levels and very low EP2 levels
- Sequence (P35408 whole entry): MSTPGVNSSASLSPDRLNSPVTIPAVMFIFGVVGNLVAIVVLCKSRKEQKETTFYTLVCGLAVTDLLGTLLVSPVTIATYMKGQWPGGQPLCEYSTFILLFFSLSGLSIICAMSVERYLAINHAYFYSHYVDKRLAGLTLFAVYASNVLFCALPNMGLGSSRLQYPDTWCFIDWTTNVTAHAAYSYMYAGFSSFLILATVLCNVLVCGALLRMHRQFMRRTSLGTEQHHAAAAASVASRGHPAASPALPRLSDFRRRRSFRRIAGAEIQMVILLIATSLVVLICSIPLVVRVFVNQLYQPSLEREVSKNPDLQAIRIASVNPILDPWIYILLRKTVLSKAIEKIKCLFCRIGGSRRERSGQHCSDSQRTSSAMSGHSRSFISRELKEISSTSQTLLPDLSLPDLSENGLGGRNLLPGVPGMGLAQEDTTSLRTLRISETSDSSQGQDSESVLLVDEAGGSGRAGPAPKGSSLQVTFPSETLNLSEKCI
- method-description: hEP4 cAMP Assay (BT549 breast cancer cells, HTRF cAMP, PGE2 6 nM)
- run-parameters: antagonistic activity, PGE2 6 nM (EC80)
- Method: The antagonistic activities of the compounds of formula (I) on the EP2 and EP4 receptors are also determined in accordance with the following experimental method. Human tumor cell lines expressing endogenously either EP4 or EP2 are used and cAMP accumulation in cells upon PGE2 stimulation is monitored. […] The obtained Delta F (fluorescence) values (665 nm/620 nM) are converted into % cAMP values using the measurements of the cAMP calibrator provided in the kit. […]
Numeric answer only, unit µM assumed.

Value wanted: IC50 (EP4 (Homo sapiens)) of entry CCOc1cc(-c2cc(NCCc3c(OCC)ccc4c3OCO4)ncn2)sc1C(=O)O [Example 45]
0.044

Query for EP4 (Homo sapiens): what IC50 does the record show for CCOc1cc(-c2cc(NCCc3c(OC)ccc4ccccc34)ncn2)sc1/C=C/C(=O)O [Example 118] ?
0.055

Missing value: IC50, EP4 (Homo sapiens), entry CCOc1cc(-c2cc(NCCc3ccc(C)c4ccccc34)ncn2)ccc1CC(=O)O [Example 99] . Fill in?
0.225

GET /values?readout=IC50&system=EP4 (Homo sapiens)&item= CCOc1cc(-c2cc(NCCc3cccc4nc(C)sc34)ncn2)sc1C(=O)O [Example 31]
0.567

What reported IC50 corresponds to CCOc1cc(-c2cc(NCCc3cccc4cc[nH]c34)ncn2)sc1-c1noc(=O)[nH]1 [Example 143] on EP4 (Homo sapiens)?
0.105

Lab note: need IC50 with EP4 (Homo sapiens) for entry CCOc1cc(-c2cc(NCCc3c(OC)ccc4ccccc34)ncn2)ccc1OCCC(=O)O [Example 120] , please look it up.
0.206

Requested read-out IC50, target or system EP4 (Homo sapiens), entry CCOc1cc(-c2cc(NCCc3c(OC)ccc4ccccc34)ncn2)ccc1NC(=O)C(=O)O [Example 133]
0.079

So what IC50 did CCOc1cc(-c2cc(NCCc3cccc4c(C)cccc34)ncn2)ccc1C(=O)O [Example 184] get with EP4 (Homo sapiens)?
0.33
